- Procedure summary: physchem
- Condition info: pKa values

{"Compound": "O=P(O)(O)C(O)(Cn1ccnc1)P(=O)(O)O [zoledronic acid]", "pKa": 5.9}

# credit: patent US7932241B2
